# System tested: Sortase A (SrtA) (Staphylococcus aureus, UniProt Q2FV99)
# Construct: SrtA residues Gln-60-Lys-206 (SrtA ΔN59), from S. aureus USA300, 6 × His tag
# Sequence (Q2FV99 60-206): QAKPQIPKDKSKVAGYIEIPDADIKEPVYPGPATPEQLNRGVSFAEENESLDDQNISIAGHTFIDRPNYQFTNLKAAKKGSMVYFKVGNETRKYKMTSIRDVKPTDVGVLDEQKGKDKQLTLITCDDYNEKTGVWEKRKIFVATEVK
# Experiment: biochemical
# Parameters: FRET cleavage of Abz-LPATG-Dap(Dnp)-NH2 by purified SrtA, fluorescence 309/420 nm
# Condition set: library screen; read-out: Relative inhibition rate (%)
If the reported inhibition at 64 µg/mL equals or exceeds 30%, assign Fulfilled. If not, assign Not fulfilled.

compound="O=c1c(O[C@@H]2O[C@H](CO)[C@@H](O)[C@H](O)[C@H]2O[C@@H]2O[C@H](CO)[C@@H](O)[C@H](O)[C@H]2O)c(-c2ccc(O)c(O)c2)oc2cc(O)cc(O)c12 [Quercetin 3-O-sophoroside]" category=Fulfilled
compound=COc1cc2c(c(OC)c1OC)-c1c(cc3c(c1OC)OCO3)[C@H](OC(C)=O)[C@H](C)[C@H](C)C2 category="Not fulfilled"
compound="O=c1c(-c2ccc(O[C@@H]3O[C@H](CO)[C@@H](O)[C@H](O)[C@H]3O)cc2)coc2cc(O)cc(O)c12 [Sophoricoside]" category="Not fulfilled"
compound=COc1ccc(-c2cc(=O)c3c(O)cc(O)cc3o2)cc1-c1c(O)cc(O)c2c(=O)cc(-c3ccc(O)cc3)oc12 category="Not fulfilled"
compound="C/C=C/c1cc(OC)c2c(c1)[C@@H](C)[C@H](c1ccc3c(c1)OCO3)O2 [(-)-Licarin B]" category=Fulfilled
compound=COc1cc(O)c2c(=O)cc(-c3ccc(OC)c(-c4c(O)cc(O)c5c(=O)cc(-c6ccc(O)cc6)oc45)c3)oc2c1 category="Not fulfilled"
compound=COc1ccc([C@@H]2OC[C@H]3[C@@H]2CO[C@@H]3c2ccc(O[C@@H]3O[C@H](CO)[C@@H](O)[C@H](O)[C@H]3O)c(OC)c2)cc1OC category="Not fulfilled"
compound=COc1cc(C[C@H](C)[C@H](C)Cc2ccc3c(c2)OCO3)ccc1O category="Not fulfilled"
compound=COc1ccc(-c2cc(=O)c3c(O)c(OC)c(OC)c(OC)c3o2)cc1OC category=Fulfilled
compound=O=c1cc(-c2ccc(O)cc2)oc2cc(O)c(O)c(O)c12 category=Fulfilled
compound=CC(C)=CCC/C(C)=C/Cc1cc(-c2coc3cc(O)ccc3c2=O)ccc1O category=Fulfilled
compound=Oc1cc(O)c2c(c1)O[C@H](c1ccc(O)c(O)c1)[C@H](O)[C@H]2c1c(O)cc(O)c2c1O[C@H](c1ccc(O)c(O)c1)[C@H](O)C2 category="Not fulfilled"
compound=O=C(O[C@H]1[C@H](Oc2c(-c3ccc(O)c(O)c3)oc3cc(O)cc(O)c3c2=O)O[C@H](CO)[C@H](O)[C@@H]1O)c1cc(O)c(O)c(O)c1 category=Fulfilled
compound=COc1ccc(-c2cc(=O)c3c(OC)c(OC)c(OC)cc3o2)cc1OC category="Not fulfilled"
compound=COc1ccc(-c2oc3cc(OC)c(OC)c(O)c3c(=O)c2OC)cc1OC category=Fulfilled
compound=COc1ccc(-c2oc3cc(OC)cc(O)c3c(=O)c2OC)cc1 category=Fulfilled
compound=COc1ccc(-c2coc3cc(OC)ccc3c2=O)cc1 category=Fulfilled
compound=C=CCc1cc(OC)c(O[C@@H](C)[C@H](O)c2ccc(O)c(OC)c2)c(OC)c1 category="Not fulfilled"
